Tested on: Gossypium hirsutum
ASSAY INFO: Post-emergence phytotoxicity against Gossypium hirsutum (cotton) assessed as mortality at 6.3 g a.i/10 a applied 11 days after germination as foliar spray
Assay type: organism-based
CONDITION INFO: in vivo, other, 264 h
READOUT LABEL: Activity

SMILES NOTATION | VALUE MEASURED
CCCOc1cccc(Sc2nc(OC)cc(OC)n2)c1C(=O)O | Toxic
COc1cc(OC)nc(Oc2ccccc2C(=O)O)n1 | Toxic

* * *

Tested on: Glycine max
ASSAY INFO: Pre-emergence phytotoxicity against Glycine max (soybean) assessed as mortality at 1.6 g a.i/10 a
Format: organism-based
CONDITION INFO: in vivo, other
READOUT LABEL: Activity

SMILES NOTATION | VALUE MEASURED
COc1cc(OC)nc(Oc2cccc(I)c2C(=O)O)n1 | Toxic
COc1cc(OC)nc(Oc2cccc(Cl)c2C(=O)O)n1 | Toxic
COc1cc(OC)nc(Sc2cccc(I)c2C(=O)O)n1 | Non-toxic
COc1cc(OC)nc(Oc2ccccc2C(=O)O)n1 | Non-toxic
COc1cc(OC)nc(Oc2cccc(Br)c2C(=O)O)n1 | Toxic

Here's the next entry for you.
Inquiry: Using the record for COC(=O)c1cccc(Oc2nc(OC)cc(OC)n2)c1C(=O)O , report its Activity.
Reply text: Non-toxic
